Species on record: Rattus norvegicus
Experiment: Open TG-GATES - Regimen: Daily Repeat
Type: toxicity, organism-based, Sprague-Dawley
Parameters: regimen Daily Repeat, gender Male, age 6 weeks
Conditions: in vivo, po, 0 mg/kg, 72 h, tissue Blood, route gavage, dose level Control, time 3 day
metric: Eos (%)

1. OCCOCCN1CCN(C(c2ccccc2)c2ccc(Cl)cc2)CC1 (stereo unspecified) [HYDROXYZINE]	1
2. CCc1oc2ccccc2c1C(=O)c1cc(Br)c(O)c(Br)c1	1.6
3. CC(C)N(CCC(C(N)=O)(c1ccccc1)c1ccccn1)C(C)C (stereo unspecified) [DISOPYRAMIDE]	1.2
4. ClC(Cl)(Cl)Cl [CARBON TETRACHLORIDE]	1
5. O=NN(CCCl)C(=O)NC1CCCCC1	0.6
6. CCC1(c2ccccc2)C(=O)NC(=O)NC1=O	0.6
7. CN(C)C(=N)N=C(N)N	1
8. CC[C@H]1[C@@H]2C[C@H]3[C@@H]4N(C)c5ccccc5[C@]45C[C@@H]([C@@H]2[C@H]5O)N3[C@@H]1O	1
9. CCCCc1oc2ccccc2c1C(=O)c1cc(I)c(OCCN(CC)CC)c(I)c1	0.8
10. CN(C)CCC=C1c2ccccc2COc2ccccc21 [DOXEPIN]	1
11. CC1=C(CC(=O)O)c2cc(F)ccc2/C1=C\c1ccc([S+](C)[O-])cc1 (stereo unspecified)	1
